Data provenance is ChEMBL document CHEMBL4321842.

- measured on: Mitogen-activated protein kinase 14 (Homo sapiens, UniProt Q16539)
- Sequence (Q16539 whole entry, the tested form may be a part): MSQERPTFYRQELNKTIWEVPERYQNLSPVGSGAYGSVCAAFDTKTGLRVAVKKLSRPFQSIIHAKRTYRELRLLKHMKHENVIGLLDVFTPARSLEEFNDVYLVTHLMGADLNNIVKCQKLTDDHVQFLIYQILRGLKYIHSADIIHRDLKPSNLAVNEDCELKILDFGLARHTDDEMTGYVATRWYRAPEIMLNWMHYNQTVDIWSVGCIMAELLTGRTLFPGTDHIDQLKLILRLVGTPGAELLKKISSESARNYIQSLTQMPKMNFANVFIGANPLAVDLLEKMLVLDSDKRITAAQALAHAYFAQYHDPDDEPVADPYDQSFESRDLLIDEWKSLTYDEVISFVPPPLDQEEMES
- test method notes: Inhibition of recombinant human His-tagged P38 alpha MAPK (1 to 360 residues) expressed in Escherichia coli incubated for 60 mins by [gamma-33P]ATP based scintillation counting method
pIC50: −log10 of the molar value.

{"columns": ["compound", "lt gt eq", "pIC50"],
 "data": [
  ["Cc1ccc(C(=O)N(C)C)cc1NC(=O)c1ccc(-c2ccccc2Cl)s1", "<", 6.30],
  ["Cc1ccc(C(N)=O)cc1NC(=O)c1ccc(-c2ccccc2Cl)s1", "=", 7.77],
  ["Cc1ccc(C(=O)N[C@@H](CCC2CCCCC2)C(N)=O)cc1NC(=O)c1cc(-c2ccccc2)n[nH]1", "=", 7.00],
  ["Cc1ccc(C(=O)N[C@@H](CCC2CCCCC2)C(N)=O)cc1NC(=O)c1ccc(-c2ccccc2Cl)s1", "=", 7.82],
  ["NC(=O)[C@H](CC1CCCCC1)NC(=O)c1ccc(NC(=O)c2cnn(-c3ccccc3)c2N)s1", "<", 6.30],
  ["CC(C)CC[C@H](NC(=O)c1ccc(CNC(=O)c2cnn(-c3ccccc3)c2)cc1)C(N)=O", "<", 6.30],
  ["NC(=O)[C@H](CCC1CCCCC1)NC(=O)c1cnc(CNC(=O)c2cnn(-c3ccccc3)c2C(F)(F)F)s1", "<", 6.30],
  ["CC(NC(=O)c1cnn(-c2ccccc2)c1N)c1ccc(C(=O)NC2CC2)cc1 (centres undefined)", "=", 6.40],
  ["CNC(=O)c1ccc(CNC(=O)c2cnn(-c3ccccc3)c2N)cc1", "=", 6.43]
]}
